Reported values of kon for individual entries
- target or system: T1, cyno pro-myostatin (cynomolgus monkey, Biotinylated for capture in the SPR assay (site not stated). The native form is a disulfide-linked homodimer, partly furin-cleaved; one chain is given.)
- T1 construct: also called proGDF8 (cynomolgus); cynomolgus monkey pro-myostatin
- method notes: SPR Biacore 8K, biotin-antigen captured
# output: bare number, implied unit M⁻¹ s⁻¹

Consider the following illustrative entries.
binder	readout unit	kon
Ab112 (antibody, human IgG4 S228P, kappa, V domains shown) VH: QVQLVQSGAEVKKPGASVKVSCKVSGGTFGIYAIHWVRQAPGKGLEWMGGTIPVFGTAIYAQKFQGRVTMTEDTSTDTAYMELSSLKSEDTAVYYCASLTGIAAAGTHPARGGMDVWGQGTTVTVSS VL: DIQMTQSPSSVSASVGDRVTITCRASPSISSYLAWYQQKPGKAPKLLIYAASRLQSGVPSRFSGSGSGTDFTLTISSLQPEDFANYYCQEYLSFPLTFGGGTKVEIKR	M⁻¹ s⁻¹	207000
Ab141 (antibody, human IgG4 S228P, kappa, V domains shown) VH: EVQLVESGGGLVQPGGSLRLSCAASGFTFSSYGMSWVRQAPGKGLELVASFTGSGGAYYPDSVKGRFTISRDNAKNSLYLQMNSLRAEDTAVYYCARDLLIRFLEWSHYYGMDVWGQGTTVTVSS VL: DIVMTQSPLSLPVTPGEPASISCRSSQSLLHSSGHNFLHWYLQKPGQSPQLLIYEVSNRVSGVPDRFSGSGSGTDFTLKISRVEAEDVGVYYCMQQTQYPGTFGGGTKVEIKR	M⁻¹ s⁻¹	2.8e+06

Please look at the following binder next.
Look up kon for this binder: Ab109 (antibody, human IgG4 S228P, kappa, V domains shown, human IgG4 in the EM experiment; also called Ab109 Human IgG4) VH: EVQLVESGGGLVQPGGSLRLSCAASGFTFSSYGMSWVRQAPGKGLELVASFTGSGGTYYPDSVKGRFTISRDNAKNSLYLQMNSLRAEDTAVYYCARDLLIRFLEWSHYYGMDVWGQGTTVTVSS VL: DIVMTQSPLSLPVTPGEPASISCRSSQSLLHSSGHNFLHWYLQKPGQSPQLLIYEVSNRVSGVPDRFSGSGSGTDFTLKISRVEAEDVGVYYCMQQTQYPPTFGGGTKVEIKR
7.23e+06
